tested on: B16 melanocyte cells; assay: B16 cell melanogenesis inhibition assay; assay type: cell-based; conditions: Melanocyte, 72 h, B16 cultured melanocyte cells, 3 days incubation, melanin OD at 480 nm; read-out: IC50, melanogenesis inhibition
quantityKind: IC50 (µg/mL)

P. O=C1NC(=O)c2ccccc21 [Phthalimide]
Q. Cn1cnc2c1c(=O)[nH]c(=O)n2C [Theobromine]
# query: argmin of IC50 over P and Q Give the label under which the chosen entry appears.
Q

A. Nc1nc2c(ncn2[C@@H]2O[C@H](COP(=O)(O)O)[C@@H](O)[C@H]2O)c(=O)[nH]1 [Guanosine Monophosphate, Guanosine Mono- phosphate]
B. O=c1cc[nH]c(=O)[nH]1 [Uracil]
A or B : whose IC50 is greater? Mark your selection by writing its label.
B
(B: 143 µg/mL, A: 70 µg/mL)
